experiment: In-vivo distribution and paw targeting in adjuvant arthritis model mice; conditions: mouse, 15 mg/kg, Distribution in Spleen, 8 h, iv ibuprofen 15 mg/kg
PROPERTY NAME: concentration at 8 h (ng/g)

>>> reported_result("CC(C)Cc1ccc(C(C)C(=O)O)cc1 (stereo not shown) [ibuprofen]")
1210

###

test: In-vivo distribution and paw targeting in adjuvant arthritis model mice; settings: mouse, 15 mg/kg, Distribution in Kidney, 0.5 h, iv ibuprofen 15 mg/kg
PROPERTY NAME: concentration at 0.5 h (ng/g)

>>> reported_result("CC(C)Cc1ccc(C(C)C(=O)O)cc1 (stereo not shown)")
2790

###

test: In-vivo distribution and paw targeting in adjuvant arthritis model mice; details: mouse, 15 mg/kg, Distribution in Heart, 0.5 h, iv ibuprofen 15 mg/kg
PROPERTY NAME: concentration at 0.5 h (ng/g)

>>> reported_result("CC(C)Cc1ccc(C(C)C(=O)O)cc1 (stereo not shown)")
6350

###

test: In-vivo distribution and ear targeting in ear swelling model mice; conditions: male, mouse, 15 mg/kg
PROPERTY NAME: concentration at 1 h

>>> reported_result("CC(C)Cc1ccc(C(C)C(=O)O)cc1 (stereo not shown) [ibuprofen]")
"3990 ng/g"

###

assay: In-vivo distribution and paw targeting in adjuvant arthritis model mice; settings: mouse, 15 mg/kg, Distribution in Heart, 2 h, iv ibuprofen 15 mg/kg
PROPERTY NAME: concentration at 2 h (ng/g)

>>> reported_result("CC(C)Cc1ccc(C(C)C(=O)O)cc1 (stereo not shown)")
2990

###

test: In-vivo distribution and paw targeting in adjuvant arthritis model mice; settings: mouse, 15 mg/kg, Distribution in Liver, 0.5 h, iv ibuprofen 15 mg/kg
PROPERTY NAME: concentration at 0.5 h

>>> reported_result("CC(C)Cc1ccc(C(C)C(=O)O)cc1 (stereo not shown) [ibuprofen]")
"11900 ng/g"

###

assay: In-vivo distribution and paw targeting in adjuvant arthritis model mice; conditions: mouse, 15 mg/kg, Distribution in paw, 1 h, iv ibuprofen 15 mg/kg
PROPERTY NAME: concentration at 1 h

>>> reported_result("CC(C)Cc1ccc(C(C)C(=O)O)cc1 (stereo not shown) [ibuprofen]")
"370 ng/g"

###

experiment: In-vivo distribution and paw targeting in adjuvant arthritis model mice; conditions: mouse, 15 mg/kg, Distribution in Heart, 1 h, iv ibuprofen 15 mg/kg
PROPERTY NAME: concentration at 1 h

>>> reported_result("CC(C)Cc1ccc(C(C)C(=O)O)cc1 (stereo not shown) [ibuprofen]")
"4240 ng/g"

###

experiment: In-vivo distribution and paw targeting in adjuvant arthritis model mice; conditions: mouse, 15 mg/kg, Distribution in Kidney, 4 h, iv ibuprofen 15 mg/kg
PROPERTY NAME: concentration at 4 h (ng/g)

>>> reported_result("CC(C)Cc1ccc(C(C)C(=O)O)cc1 (stereo not shown)")
1910

###

experiment: In-vivo distribution and paw targeting in adjuvant arthritis model mice; settings: mouse, 15 mg/kg, Distribution in Heart, 4 h, iv ibuprofen 15 mg/kg
PROPERTY NAME: concentration at 4 h (ng/g)

>>> reported_result("CC(C)Cc1ccc(C(C)C(=O)O)cc1 (stereo not shown) [ibuprofen]")
1870

###

assay: In-vivo distribution and paw targeting in adjuvant arthritis model mice; conditions: mouse, 15 mg/kg, Distribution in Spleen, 2 h, iv ibuprofen 15 mg/kg
PROPERTY NAME: concentration at 2 h (ng/g)

>>> reported_result("CC(C)Cc1ccc(C(C)C(=O)O)cc1 (stereo not shown)")
2420
